Items are presented alongside their recorded T/C.
System: CD2F1 mice, intracerebral L1210 leukemia, survival T/C
testMethodNotes: NCI In Vivo Anticancer Drug Screen. Data for tumor model L1210 Leukemia (intracerebral) in CD2F1 (CDF1) mice
experimentalParameters: endpoint: median survival time; dose: 256.0 mg/kg/injection; schedule: Q01DX009 (ip); vehicle: saline with Tween-80; higher = longer survival
Inconclusive results and toxic doses are left out.
propertyLabel: T/C

>>> reportedresult("CCC(=O)O[C@H]1CC[C@H]2[C@@H]3CCC4=CC(=O)CC[C@]4(C)[C@H]3CC[C@]12C")
"101 % of control"
>>> reportedresult("CCCCCC(=O)O[C@]1(C(C)=O)CC[C@H]2[C@@H]3CCC4=CC(=O)CC[C@]4(C)[C@H]3CC[C@@]21C")
"94 % of control"
>>> reportedresult("C[C@]1(O)CC[C@H]2[C@@H]3CCC4=CC(=O)CC[C@]4(C)[C@@]3(F)[C@@H](O)C[C@@]21C")
"104 % of control"
>>> reportedresult("CCC(=O)O[C@H]1CC[C@H]2[C@@H]3CC[C@H]4CC(=O)[C@H](C)C[C@]4(C)[C@H]3CC[C@]12C")
"104 % of control"

====

Tested on: CD2F1 mice, intracerebral L1210 leukemia, survival T/C
testMethodNotes: NCI In Vivo Anticancer Drug Screen. Data for tumor model L1210 Leukemia (intracerebral) in CD2F1 (CDF1) mice
experimentalParameters: endpoint: median survival time; dose: 64.0 mg/kg/injection; schedule: Q01DX005 (ip); vehicle: saline + alcohol; higher = longer survival
Toxic doses and inconclusive results are not listed.
propertyLabel: T/C

>>> reportedresult("CN(C)N=Nc1ccccc1C(=O)O")
"97 % of control"
>>> reportedresult("COC(=O)c1ccc(N=NN(C)C)cc1")
"120 % of control"
>>> reportedresult("CN(C)N=Nc1ccccc1Cl")
"102 % of control"
>>> reportedresult("COC(=O)c1cccc(N=NN(C)C)c1")
"113 % of control"
